biological target: Calmodulin-1 (Homo sapiens) (UniProt P0DP23); assay: small molecules binding Ca-loaded calmodulin-1 – biochemical, small-molecule microarray, Cy5-labelled CALM1, plus calcium, artefact control for SMM control-protein annotation, profiling panel (AID 1112); conditions: Cy5-CALM1 binding fluorescence, higher = more signal;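 also: score merges spot fluorescence with signal to noise from triplicate slides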

compound	composite z-score
CN(C)CCCN1C(=O)[C@@]2(Cc3ccccc31)c1ccccc1C(=O)N(Cc1ccccc1)[C@H]2c1ccc(CO)cc1	-0.258
CN1C(=O)C2C=CC(C(O)c3ccc(F)cc3)N(N3CCCCC3)C2C1=O (stereo unspecified)	1.23
COC(=O)C(CC#Cc1ccc2c(c1)[C@]1(C(=O)N2)[C@H](C(=O)N2CCc3cc(OC)c(OC)cc3C2)[C@H]2C(=O)O[C@H](c3ccccc3)[C@H](c3ccccc3)N2[C@@H]1c1ccc(OCCO)cc1)C(=O)OC	0.16
COC(=O)[C@@]1(Cc2ccc(OC)cc2)[C@H]2c3cc(C(=O)N(C)C)n(CCF)c3C[C@H]2CN1C(=O)c1ccccc1	1.02
CCCNC(=O)[C@@]1(Sc2ccc(C)cc2)CC(=O)N(Cc2ccccc2)[C@@H]1c1ccc(CO)cc1I	0.143
CC1(C)[C@@H]2CC(C(O)C3C=CC4C(=O)N(c5ccccc5)C(=O)C4N3Nc3ccccc3F)=C[C@@H]1C2 (stereo partly specified)	-0.229

###

Item-by-item account of composite z-score
target: Fibroblast growth factor 2 (Homo sapiens) (UniProt P09038); test: basic fibroblast growth factor binding to printed compounds – biochemical, small-molecule microarray, 635/667 nm fluorescence, primary screen (AID 1133); details: FGF2, fluorescence 635/667, higher = more signal
Sequence (P09038 whole entry, looked up): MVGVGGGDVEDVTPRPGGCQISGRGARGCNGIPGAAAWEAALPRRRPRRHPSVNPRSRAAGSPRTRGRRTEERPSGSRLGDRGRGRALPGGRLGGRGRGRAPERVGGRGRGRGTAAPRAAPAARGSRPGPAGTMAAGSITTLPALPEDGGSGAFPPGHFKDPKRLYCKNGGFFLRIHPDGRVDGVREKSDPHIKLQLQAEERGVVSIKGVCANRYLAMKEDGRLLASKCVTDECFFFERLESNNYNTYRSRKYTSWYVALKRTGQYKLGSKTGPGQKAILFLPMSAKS

compound	composite z-score
COc1ccc(C(=O)Nc2ccc(CN3C(=O)[C@]4(O[C@H](CCn5cc([C@H](O)c6ccccc6)nn5)[C@@H]([Si](C)(C)c5ccc(OC)cc5)[C@@H]4C)c4ccccc43)cc2)cc1	-0.224
CCC[C@@H]1C[C@@]1(CCC)[C@@H](NC(=O)c1ccco1)c1ccc(Cl)cc1	-0.882
CC1(C)[C@@H]2CC(C(O)C3C=CC4C(=O)N(c5ccccc5)C(=O)C4N3Nc3ccccc3F)=C[C@@H]1C2 (some centres undefined)	1.26
COC(=O)[C@@]1(Cc2ccc(F)cc2)[C@H]2c3cc(C(=O)N(C)C)n(CCSCCO)c3C[C@H]2CN1C(=O)c1ccccc1	-0.254

###

Item-by-item account of z-score
assay: resazurin metabolic signal in HepG2 cells – cell-based, resazurin fluorescence, 24 h, PK04 Diversity Set, profiling panel (AID 1172); details: HepG2 viability, higher = more signal; also: test concentration not given here
measurement_label: z-score

compound	result
COCCOC(=O)N1C(=O)[C@@]2(c3cc(C#CCNC(N)=O)ccc31)[C@H](c1ccc(OCCO)cc1)N1[C@H](c3ccccc3)[C@H](c3ccccc3)OC(=O)[C@H]1[C@@H]2C(=O)N1CCN(c2ncccn2)CC1	0.26
CC(C)(C)OC(=O)CC[C@@]1(C(=O)N2CCCCC2)N=C(c2ccc(OCCCO)cc2)O[C@@H]1c1ccccc1CN=[N+]=[N-]	0.613
CC1=C2[C@@H](CCc3ccccc3)OB(O)C[C@@H]2[C@@H]2C(=O)C=CC(=O)[C@@H]2C1	-0.548
COc1cccc(C[C@H]2C[C@@H](CO[Si](C(C)C)(C(C)C)C(C)C)N3C(=O)[C@]4(C(C)=O)O[C@]23[C@H]2C(=O)N(C)C(=O)[C@H]24)c1	-1.03
Cc1cc(C)c(C(O)C2C=CC3C(=O)N(c4ccccc4)C(=O)C3N2Nc2ccccc2)c(C)c1 (configuration not stated)	-0.156
COCCOC(=O)N1C(=O)[C@@]2(c3cc(C#CCCO)ccc31)[C@H](c1ccc(OCCO)cc1)N1[C@H](c3ccccc3)[C@H](c3ccccc3)OC(=O)[C@H]1[C@@H]2C(=O)N1CCc2cc(OC)c(OC)cc2C1	-0.398
NC(=O)NCC#Cc1ccc2c(c1)[C@]1(C(=O)N2)[C@H](c2ccc(O)cc2)N2[C@H](c3ccccc3)[C@H](c3ccccc3)OC(=O)[C@H]2[C@@H]1C(N)=O	-0.49
